Target: TRPV4 (transient receptor potential vanilloid 4) (Mus musculus)
Experiment: Inhibition of GSK1016790A-induced calcium influx
resultType: pIC50
Scale: negative log10 of molar concentration, which is what pIC50 denotes.

So what's the measured pIC50 for this one? Cc1c(C(=O)Nc2cccc(C(F)(F)F)c2)cc(-c2ccccc2)n1CCCN1CCOCC1 [HC, HC067047]
5.15

###

Molecular target: TRPV4 (transient receptor potential vanilloid 4) (Mus musculus, UniProt Q9EPK8)
Sequence (Q9EPK8 whole entry): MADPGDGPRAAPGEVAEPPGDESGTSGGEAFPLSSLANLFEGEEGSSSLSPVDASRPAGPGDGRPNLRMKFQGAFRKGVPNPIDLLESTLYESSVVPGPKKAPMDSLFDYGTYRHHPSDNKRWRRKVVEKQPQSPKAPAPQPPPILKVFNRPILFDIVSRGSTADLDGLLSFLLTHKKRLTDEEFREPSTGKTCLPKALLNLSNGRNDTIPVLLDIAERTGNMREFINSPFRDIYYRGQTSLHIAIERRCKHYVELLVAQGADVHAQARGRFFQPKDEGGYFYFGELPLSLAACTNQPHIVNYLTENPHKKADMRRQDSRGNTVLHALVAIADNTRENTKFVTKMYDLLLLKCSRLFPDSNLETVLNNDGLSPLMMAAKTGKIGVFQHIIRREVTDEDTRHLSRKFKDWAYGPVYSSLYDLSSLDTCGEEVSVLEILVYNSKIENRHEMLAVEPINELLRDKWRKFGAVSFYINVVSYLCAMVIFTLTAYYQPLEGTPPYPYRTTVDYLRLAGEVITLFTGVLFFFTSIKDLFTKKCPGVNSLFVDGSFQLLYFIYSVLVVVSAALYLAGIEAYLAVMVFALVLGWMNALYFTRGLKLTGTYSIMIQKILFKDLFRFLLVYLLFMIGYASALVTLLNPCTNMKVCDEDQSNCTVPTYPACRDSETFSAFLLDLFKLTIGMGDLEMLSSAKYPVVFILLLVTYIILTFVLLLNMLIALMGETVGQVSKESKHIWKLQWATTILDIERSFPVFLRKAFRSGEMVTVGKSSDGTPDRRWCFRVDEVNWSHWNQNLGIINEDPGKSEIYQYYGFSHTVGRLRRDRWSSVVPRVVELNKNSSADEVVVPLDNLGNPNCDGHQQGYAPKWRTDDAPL
Experiment: Calcium influx
resultType: pEC50
Note: pEC50 values are expressed as the negative base-10 logarithm of concentration in M.

// pEC50 lookup, key: CC(C)C[C@H](NC(=O)c1cc2ccccc2s1)C(=O)N1CCN(C(=O)[C@H](CO)NS(=O)(=O)c2ccc(Cl)cc2Cl)CC1 [GSK, GSK1016790A]
7.30
